- TARGET OR TEST SYSTEM: T1, monkey Trop2 protein (Sino Biological, #90893-C08H) (monkey, UniProt A0A2K5UE71 27-274)
- T1 construct: bought protein; also called monkey Trop2 protein antigen (His tag)
- T1 sequence: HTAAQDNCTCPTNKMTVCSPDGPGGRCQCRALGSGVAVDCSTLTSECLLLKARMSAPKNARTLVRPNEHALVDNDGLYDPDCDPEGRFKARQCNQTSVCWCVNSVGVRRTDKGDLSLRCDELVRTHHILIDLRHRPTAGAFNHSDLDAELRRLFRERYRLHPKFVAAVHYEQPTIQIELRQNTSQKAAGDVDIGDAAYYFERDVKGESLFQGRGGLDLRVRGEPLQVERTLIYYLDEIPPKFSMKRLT
- PROCEDURE SUMMARY: BLI, Octet RED96, AHC sensor
QUANTITY NAME: Kd (nM)
Give bare numbers, in nM.

Ask: // lookup Kd for PR001159 (antibody, human IgG1, kappa, V domains shown, fully human IgG1/kappa; also called antibody No. (21)) VH: QVQLVESGGGVVQPGRSLRLSCEASGFTFSHYGMHWVRQAPGKGLEWVAVIWYDGIKTNYVESVKGRFTISRDNSKNTLNLQMNRLRAEDTAVYYCARDGGFGESNYYGLDVWGQGTTVTVSS VL: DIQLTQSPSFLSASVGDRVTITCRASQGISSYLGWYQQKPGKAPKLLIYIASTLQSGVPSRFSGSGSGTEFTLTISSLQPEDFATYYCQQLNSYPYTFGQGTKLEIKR
Result: 0.307

In the following, a different binder is considered.
Ask: // lookup Kd for PR001132 (antibody, human IgG1, kappa, V domains shown, fully human IgG1/kappa; also called antibody No. (4)) VH: QVELVESGGGVVQPGRSLRLSCGASGFTFSSYNMYWVRQAPGKGLEWVAGIWDDGNNKYYANSVKGRFTISRDNSKNTLYLQMNSLRTEDTALYYCAKDGWGSYGEYFQHWGQGTLVTVSS VL: DIQMTQSPSSLSASVGERVTITCRASQNINSYLSWYQQKPGKAPKLLIYAASSLQNGVPSRFSGSGSGTDFTLTISSLQPEDFATYYCQQSFSTPPITFGQGTRLEIKR
Result: 0.164
